Some compounds, each annotated with its measured melting point.

# count of solved cases: 6
- COc1ccccc1NC(=O)Nc1ccc2c(c1)CCN(C(=O)Nc1ccc(OCCO)cc1Cl)C2: 130 to 135 °C
- COc1ccc(F)cc1NC(=O)Nc1ccc(N2CCN(C(=O)Nc3ccccc3C(F)(F)F)CC2)cc1: 229 to 230 °C
- COc1ccc(Cl)cc1NC(=O)Nc1ccc(N2CCN(C(=O)Nc3c(F)cccc3C(F)(F)F)CC2)cc1: 156 to 158 °C
- CCc1ccccc1NC(=O)N1CCN(c2ccc(NC(=O)Nc3cc(C)ccc3OC)cc2)CC1: 220 to 221 °C
- O=C(Nc1ccc(N2CCN(C(=O)Nc3ccc(OCCO)cc3C(F)(F)F)CC2)cc1)Nc1ccccc1OC(F)F: 118 to 120 °C
- COc1ccc(NC(=O)N2CCN(c3ccc(NC(=O)Nc4cc(C)ccc4OC)cc3)CC2)c(C(F)(F)F)c1: 245 to 247 °C

Query: # melting point lookup, item CCOc1ccccc1NC(=O)Nc1ccc(N2CCN(C(=O)OC(C)(C)C)CC2)nc1
Reply: 162 °C
